From: PubChem BioAssay

Consider the following compounds; for each one, report its nuclei count.
method_description: inhibitors of E-selectin induction by TNFa, primary screen, imaging, HUVEC, immunofluorescence, MLSMR starter and 10KST1 sets (AID 487);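 further: 100% = median nuclei count of all wells on the same plate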
condition_notes: HUVEC TNFalpha-induced E-selectin immunofluorescence imaging, at 2 µM; measured here: cell number, toxicity
A number alone suffices; assume %.

Consider the compound "COc1ccc(C(=O)c2ccc(N3CCOCC3)cc2)c(OC)c1" and give its recorded nuclei count.
99.4

Consider the compound CC1NC2(C(=O)N(Cc3ccccc3)c3ccccc32)C2C(=O)N(c3ccccc3)C(=O)C12 (stereo unspecified) and give its recorded nuclei count.
109

Consider the compound "O=C(O)c1cc2cccc(S(=O)(=O)N3CCOCC3)c2cc1O" and give its recorded nuclei count.
164

Consider the compound "CN1Cc2c(N3CCOCC3)nc(SCc3ccccc3)c(C#N)c2CC1(C)C" and give its recorded nuclei count.
134

Consider the compound CCOC(=O)C(C)n1cnc2c(nnn2Cc2ccc(C)cc2)c1=O (stereo unspecified) and give its recorded nuclei count.
86.9

Consider the compound Nc1nc2n(n1)C(c1cccs1)CC(c1ccc(Br)cc1)N2 (stereo unspecified) and give its recorded nuclei count.
149
